- Tested on: high affinity 3H-D-aspartate absorption, synaptic vesicles (synaptosomes) from rat cortex
- EXPERIMENT: "High affinity" absorption of 3H-aspartate in a vesicle preparation from rat brain
- Format: biochemical
- EXPERIMENTAL CONDITIONS: preparation concentration 100 μM; relative to control values (100%)
READOUT NAME: Stimulation of the 3H-D-aspartate absorption, Stimulation (%)
Unit % implied. Number only.

Value of Stimulation of the 3H-D-aspartate absorption, Stimulation (%) reported for the compound CC(C)[C@@H]1CC[C@@H](C)C[C@H]1OC(=O)CCc1cc(C[N+](C)(C)C)on1 is 46

Notebook: COC(=O)CCc1cc(CNC(=O)[C@@H](N)Cc2ccccc2)on1.Cl , Stimulation of the 3H-D-aspartate absorption, Stimulation (%) read as 23

Recorded result, C[C@H]1C[C@@H](OC(=O)CCc2cc(CN)on2)CC(C)(C)C1 (relative stereo) , Stimulation of the 3H-D-aspartate absorption, Stimulation (%): 19

Record CC(=O)NCC1CC(CCC(=O)O)=NO1 (centres unmarked) . Reported Stimulation of the 3H-D-aspartate absorption, Stimulation (%): 19

Summary for this compound, CC(C)[C@H]1CC[C@H](C)C[C@@H]1OC(=O)CCc1cc(C[N+](C)(C)C)on1 : Stimulation of the 3H-D-aspartate absorption, Stimulation (%) is 25

* * *

- EXPERIMENT: Toxicity (LD50) in the mouse
- EXPERIMENTAL CONDITIONS: in vivo, iv
Where a name gives a salt, the structure may show the parent alone.
Field: LD50. Provide a value for each of the compounds that follow.

The recorded LD50 for entry CC(C)[C@@H]1CC[C@@H](C)C[C@H]1OC(=O)CCc1cc(CN)on1 equals 50 to 100 mg/kg

The reported value for NCc1cc(CCC(=O)O)no1 in terms of LD50 is > 100 mg/kg

For CC(C)[C@H]1CC[C@H](C)C[C@@H]1OC(=O)CCc1cc(CNC(=O)[C@@H](N)Cc2ccccc2)on1 [Example 20, hydrochloride] the compound record lists LD50 as 25 to 50 mg/kg

Form: compound = N.N.O=C(O)CCc1cc(CNCc2cc(CCC(=O)O)no2)on1 ; LD50 = > 100 mg/kg

* * *

- System: NMDA receptor-channel complex
- EXPERIMENT: Inhibition of 3H-MK-801 binding to membranes from rat brain
- EXPERIMENTAL CONDITIONS: preparation concentration 50 μM; 3H-MK801 1 nM
Exercise: state measured Inhibition of 3H-MK-801 binding to the NMDA receptor-channel complex, inhibition (%) for each of the compounds provided.
Numbers only here, please. The scale is %.

Field Inhibition of 3H-MK-801 binding to the NMDA receptor-channel complex, inhibition (%) (entry CC(C)[C@@H]1CC[C@@H](C)C[C@H]1OC(=O)C1CC(C(=O)O)=NO1 (single isomer, unassigned; (-)) ) reads 43

Inhibition of 3H-MK-801 binding to the NMDA receptor-channel complex, inhibition (%) reading for O=C(O)C1CN(CCCP(=O)(O)O)CCN1 (racemic) [CPP, reference compound] : 81

Per the records, this compound ( O=C(O)c1cc(CNCc2ccccc2)on1 ) has Inhibition of 3H-MK-801 binding to the NMDA receptor-channel complex, inhibition (%) equal to 10

Inhibition of 3H-MK-801 binding to the NMDA receptor-channel complex, inhibition (%) reported for this compound Cl.NCc1cc(CCC(=O)OCc2ccccc2)no1 : 78

According to the records, this compound CC(C)[C@H]1CC[C@H](C)C[C@@H]1OC(=O)CCc1cc(C[N+](C)(C)C)on1 displays Inhibition of 3H-MK-801 binding to the NMDA receptor-channel complex, inhibition (%) of 16

Form field Inhibition of 3H-MK-801 binding to the NMDA receptor-channel complex, inhibition (%), entry CC(C)[C@@H]1CC[C@@H](C)C[C@H]1OC(=O)CCc1cc(CNC(=O)[C@@H](N)Cc2ccccc2)on1 : 45
